Tested on: Renilla_ERa
PROCEDURE_SUMMARY: Renilla signal in ERα counterscreen (Renilla_ERa)
Assay type: cell-based
ASSAY_CONTEXT: ERα transient transfection, 10 μM, repeat 2
MEASURED_ATTRIBUTE: Renilla_ERa, cmpd/DMSO repeat 2
Please give only the number in your answer, with no unit.

COMPOUND: Nc1nonc1-c1noc(-c2cccc(COc3ccc(Cl)cc3Cl)c2)n1
Renilla_ERa, cmpd/DMSO repeat 2: 1.2
--
COMPOUND: O=c1[nH]c(CS(=O)(=O)c2ccccc2)nc2sc3c(c12)CCCC3
Renilla_ERa, cmpd/DMSO repeat 2: 1.0
--
COMPOUND: Cc1ccnc(NC(=O)c2cc3sc4ccccc4c3s2)c1
Renilla_ERa, cmpd/DMSO repeat 2: 0.9
--
COMPOUND: CCn1c2c(c(=O)[nH]c1=O)C(c1ccc(C(C)C)cc1)C1=C(N2)c2ccccc2C1=O (centres unmarked)
Renilla_ERa, cmpd/DMSO repeat 2: 0.9

Moving on to another compound below.
What value of Renilla_ERa, cmpd/DMSO repeat 2 has been reported for the following compound? CCc1ccc(OCC(=O)Nc2cc(-c3nc4cc(C)ccc4o3)ccc2C)cc1 1.0
